Reference source: the METLIN SMRT retention time set (Domingo-Almenara et al. 2019)

test: gradient 5% acetonitrile 3 min, to 50% in 2 min, to 85% in 15 min, held 3 min, 100 µL/min; conditions: column: Zorbax Extend-C18 2.1 x 50 mm; eluents: water / acetonitrile, 0.1% formic acid
Reported Endpoint: RP-LC retention time (s)
Your answer is read as s, so omit the unit and give the number.

Consider the worked cases shown below.
* COCCN1C(=O)c2cc(-c3ccc(OC)c(OC)c3)nn2CC1(C)C(=O)NC1CCCCC1 (configuration not stated) | 824
* O=C(NCCN1CCCCC1)C1CCCN(c2ncc(-c3cccc(F)c3)cn2)C1 (configuration not stated) | 696
* COc1cccc(N2CCN(C(=O)C3CCN(c4nnc(-c5ccccc5)o4)CC3)CC2)c1 | 807
* COc1ccc2nc(-c3ccc(F)c(NC(=O)Nc4ccccc4C)c3)cn2n1 | 789
* Cc1cccc(NC(=O)C2CC(=O)N(c3n[nH]c4cccc(F)c34)C2)c1C (configuration not stated) | 770
* CCC(C)NC(=O)c1c(C)sc2ccn(CC)c(=O)c12 (configuration not stated) | 709

Q) What does the data say about its RP-LC retention time? Entry: "O=C(O)c1nnn(-c2ccc3c(c2)OCO3)c1-c1ccncc1"
A) 612

Q) How about this compound: "CCCNc1cc(N2CCC(CCC(=O)NCc3cc(F)ccc3F)CC2)ncn1"
A) 684

Q) How about this compound: CCCS(=O)(=O)N1CCC2(CC1)CC(OCc1ccccc1)CCO2 (configuration not stated)
A) 984

Q) How about this compound: "CCc1nc2cc(N3CCC(C(=O)NCCN4CCCCCC4)CC3)cnc2nc1CC"
A) 613

Q) How about this compound: O=C(C1CC(=O)N(c2ccc(F)cc2)C1)N1CCN(CCn2cccn2)CC1 (configuration not stated)
A) 556

Q) How about this compound: "COCCn1nc(C(=O)N(C)CCCc2c(C)nn(C)c2C)c2c1CCNC2"
A) 572
